Answer each item with its documented growth.
tested on: KM12 colon; experiment: NCI-60 one-dose screen, 48 h (100 = growth as untreated, 0 = no growth, -100 = all killed); conditions: 10 µM unless noted
This is part of a sample that, as a whole, favours compounds with a hit. Of some 83,000 tested, about 20% had one in any assay.
Please respond with the number in % and leave the unit unwritten.

Report measured growth; entry is CN(C)c1ccc(-c2c(C#N)c(N)nn2C(=O)c2ccc(NC(=O)c3ccccn3)cc2)cc1
88

Determine its reported growth: O=c1c2cccc3c(N4CCCC4)ccc(c32)c2nc3ccccc3n12
87.9

Report growth for CNc1nnc2n(-c3ccccc3)c(=O)c3cnn(-c4ccccc4)c3n12
87.4

---

system: BT-549 breast; experiment: NCI-60 one-dose screen, 48 h (100 = growth as untreated, 0 = no growth, -100 = all killed); settings: 10 µM unless noted
Compounds without any hit were thinned out: in the full panel of roughly 83,000, 20% have a hit.
Measured Parameter: growth (%)
Expressed in %, but write only the number.

// output growth; input CCCCNCCCCCNc1cc(OC)cc2cccnc12 ; system BT-549 breast
91

Under BT-549 breast: report growth of CC(C)(Sc1cc(C(C)(C)C)c(OC(=O)CCCC(=O)O)c(C(C)(C)C)c1)Sc1cc(C(C)(C)C)c(OC(=O)CCCC(=O)O)c(C(C)(C)C)c1 .
39.8

Give BT-549 breast growth for the following compound: O=C(Nc1cccc2ccccc12)NC1CC1
91.1

---

For each entry below, report its growth value.
test system: SF-295 CNS; test: NCI-60 one-dose screen, 48 h (100 = growth as untreated, 0 = no growth, -100 = all killed); conditions: 10 µM unless noted
About 83,000 compounds went through this panel and 20% of them were active in at least one assay; those are over-represented in the sample as a whole.
Write the answer as a number in %, unit excluded.

Answer with the recorded growth for the molecule listed here: CC(=O)Oc1ccc(N2C(=O)C(Cl)=C(Nc3cccc(C(F)(F)F)c3)C2=O)cc1
102

Consider the molecule CN(/C(N)=N/N=C/c1c2ccccc2cc2ccccc12)C1CCCCC1 and give its recorded growth.
45.7

Using the record for CCCCC1=C(P(=O)(O)O)N[C@H](C(=O)O)CS1 , state its measured growth.
85.9

---

system: KM12 colon; experiment: NCI-60 one-dose screen, 48 h; settings: 10 µM unless noted
Compounds without any hit were thinned out: in the full panel of roughly 83,000, 20% have a hit. Activity calls are given as the source filed them. How the source made its calls: active means growth percent below 10; inactive means the rest.
Entry note: the call must match one of Y (active), N (inactive)

Record request — test call for O=C(/C=C/c1cn(-c2ccccc2)nc1-c1ccc(Cl)cc1)c1ccc(F)cc1
N

Any idea what this test logged for COC(=O)c1nc(-c2ccc(C)cc2)oc1S(=O)(=O)c1cccc(OC)c1 ?
N

Identify the outcome logged in this assay for the molecule shown: O=C(N/N=C/c1ccc(Cl)cc1)c1[nH]c2ccc(Cl)cc2c1-c1ccccc1
Y

State the result this test recorded for CCN(CC)CCn1c2ccc(OC)cc2c2sc3cc(OC)ccc3c(=O)c21 .
N

Recorded test outcome, item O=C(Nc1nc2ccccc2s1)c1ccc(F)cc1
N

Field: outcome | Entry: Cc1ccc2c(Cn3cc(CSc4nc5ccccc5o4)nn3)cc(=O)oc2c1
N

Record request — test call for CCCNc1nc2ccccc2c2c1S(=O)(=O)c1ccc(Cl)cc1C2=O
N

Please indicate how the test categorized NC(=O)C(=O)c1ccccc1NC=O .
N

Hey, what did the test say about O=[N+]([O-])c1cccc(-c2nc3cc4nc5ccccc5[nH]c4cc3n2)c1 ?
N

Write down the call the test reported for this molecule. Item: COc1c(B(O)O)cccc1-c1nc2c(F)cc3[nH]ncc3c2c2c1CCCC2
Y

Hi, sorry to bother you, what did the test record for NC(=O)c1cc(I)ccc1NC(=O)/C=C/c1ccccc1 ?
Y

Hi team, can someone confirm the assay call for Oc1c(I)cc(I)cc1CNCCN(Cc1ccccn1)Cc1ccccn1 ?
Y

Please state the recorded outcome for this molecule: COC(=O)/C=C1/SC(=Nc2ccc(C(F)(F)F)cc2)N(CCc2c[nH]c3ccc(O)cc23)C1=O
N

# outcome recorded in this test, key = O=C(O)c1cn(C2CC2)c2cc(N3CCN(Cc4ccc5ccccc5c4O)CC3)c(F)cc2c1=O
N

Which outcome was entered for the molecule COc1ccc(NC(=O)c2sc3nc(C)c(C(=O)/C=C/c4ccccc4)cc3c2N)cc1 in this test?
N

Give the logged outcome of this assay for the following molecule: Cn1cc(-c2nonc2-c2cn(C)c3ccccc23)c2ccccc21
N

Outcome logged for Cc1cc(N2CCN(CCNc3ccnc4cc(Cl)ccc34)CC2)nc(N2CCOCC2)n1 in this assay:
N

Field: outcome | Entry: CCCCNC(=O)Oc1ccc(/C(=C(/C)Cc2ccc(OC)cc2)c2ccc(OCCN3CCCC3)cc2)cc1
N

Dear all, I need the recorded test outcome for CN1C(=O)/C(=C\c2c(Cl)cccc2Cl)c2ccccc21 , thank you.
N

// return assay outcome for CC(=O)n1nc(C(=O)OC(C)(C)c2ccccc2)c2ccccc21
N

For O=C(NCc1ccc(Cl)cc1Cl)C1CCC(=O)N1c1cccs1 (stereo unspecified) , what call appears in the results of this test?
N

---

tested on: K-562 leukemia; test: NCI-60 one-dose screen, 48 h (100 = growth as untreated, 0 = no growth, -100 = all killed); conditions: 10 µM unless noted
About 83,000 compounds went through this panel and 20% of them were active in at least one assay; those are over-represented in the sample as a whole.
Can you tell me growth for the items I'm about to list?
Use % as the unit, but write only the number.

Give reported growth value for CCOC(=O)Cc1cnc(N/N=C(\C)c2cc3ccccc3o2)s1
98.5

Respond only with growth recorded for C=CCN=c1sc2c(n1NC(=O)c1cc3ccc1CCc1ccc(cc1)CC3)C(=O)c1ccccc1C2=O
-12.3

Please list growth recorded for the molecule CCOc1ccc(NC(=O)CSc2oc(-c3ccccc3)nc2S(=O)(=O)c2ccc(C)cc2)cc1
53

Give reported growth value for c1ccc(Cn2cc3c(c2)-c2oncc2CC3)cc1
13.9

Look up growth of CCSc1nc2scc(C)c2c(=O)[nH]1 and report it.
99.9

Tell me growth reported for Cn1ccnc1C(=O)/C=C/c1ccc(C(=O)Nc2ccccc2O)cc1
7.38

Name the recorded growth of the molecule listed here: Cc1cc(C(=O)O)c(C)n1-c1cccc(C(=O)O)c1
63.3

Provide growth value for the following molecule: COc1ccc(/C=N/NC(=O)c2ccc(-n3cc(-c4ccccc4)nn3)cc2)cc1OC
93.2

Give reported growth value for O=c1[nH]c(Cc2nc3ccccc3s2)nc2cc(Br)ccc12
23.2

Determine its reported growth: COc1ccc2c(c1OC)CO[C@@H]2[C@H]1c2c(cc3c(c2OC)OCO3)CCN1S(=O)(=O)c1cn(C)cn1
10.7

Return reported growth. Input molecule: CCCCC1=C(P(=O)(O)O)N[C@H](C(=O)O)CS1
93.1

Supply measured growth of Nc1nc(-c2ccc(Cl)cc2)nc2c1sc(=S)n2-c1ccccc1 in your reply.
41.1

Note down growth recorded for CCOC(=O)n1ccn(C)c1=S
103

Supply recorded growth for CCOC(=O)C#Cc1c(C(=O)OCC)nnn1Cc1ccc([N+](=O)[O-])cc1 here.
4.56

Return the recorded growth value; entry: COc1ccc(C(=O)N2c3ccccc3Sc3ccccc32)c(OC)c1
10.5

Report measured growth; entry is Oc1ccc(Cl)cc1/C=N\NC(=S)N/N=C/c1cc(Cl)ccc1O
22.1

Please give the documented growth of O=S(=O)(Nc1cc(Cl)ccc1Cl)c1ccc(-c2cnc(C3CC3)o2)cc1
12

State, in one line, measured growth of N#CC1=C(N)Oc2c(sc3c(Br)cccc23)C1c1ccc(Cl)cc1 (centres undefined)
7.37

Tell me its growth given O=S(=O)(NCCNc1nccc(-c2c(-c3ccc(F)c(O)c3)nc3sccn23)n1)c1ccc(O)cc1 as the entry.
28.9

---

tested on: DU-145 prostate; experiment: NCI-60 one-dose screen, 48 h (100 = growth as untreated, 0 = no growth, -100 = all killed); conditions: 10 µM unless noted
Compounds without any hit were thinned out: in the full panel of roughly 83,000, 20% have a hit.
Measured Parameter: growth (%)
Quick reminder: number only, in %, skip the unit.

Supply recorded growth for COc1ccccc1N1CCCCC1 here.
110

Let me know recorded growth for CCSC(SCC)c1ccc(Cl)cc1 , thanks.
107

Give a short answer stating reported growth for O=S(=O)(NCCNc1nccc(-c2c(-c3ccc(F)c(O)c3)nc3sccn23)n1)c1ccc(O)cc1 .
43.8

Give the measured growth for Cc1cc(=O)oc2cc(OCc3nn4c(Nc5nc6ccccc6s5)c(-c5ccccc5)nc4s3)ccc12
97.7

Let me know recorded growth for COc1ccc2[nH]c(C(=O)N3CCN(C(=O)OCc4ccc5c(Cl)cc(Cl)c(O)c5n4)CC3)cc2c1 , thanks.
-88.6

Look up and state reported growth for Cc1ccc2c(n1)C(=O)C(Br)=C(C1CCCC1)C2=O
105

Answer with reported growth of Cc1ccc(C(=O)c2ccc(CC(=O)N/N=C/c3ccccc3O)n2C)cc1
89.6

Name the recorded growth of the compound listed here: Cc1ccc2c(n1)C(=O)C(Br)=C(CC(C)C)C2=O
109

Indicate its recorded growth; the compound in question is COc1cc2c(c(OC)c1OC)CCC(c1cccc(C(=O)Nc3cccc(Cl)c3)c1)O2 (stereo unspecified)
81

Read the entry Cc1ccc(-c2nc([P+](c3ccccc3)(c3ccccc3)c3ccccc3)c(S(=O)(=O)c3ccc(C)cc3)o2)cc1 and write its reported growth.
25.5

Complete the entry with growth for CCOC(=O)n1cc(-c2nonc2-c2cn(C(=O)OCC)c3ccc(Br)cc23)c2ccccc21
93.9

Let me know recorded growth for CC1=NC2=Nn3c(c4cnn(-c5ccccc5)c4n/c3=N\N)NN2C(c2ccccc2)=C1 , thanks.
105

Given the compound COc1cc(-c2csc(NC(=O)c3ccc(N4CCOCC4)c(C(F)(F)F)c3)n2)cc(OC)c1OC , write its reported growth.
53.4

Consider the compound Cc1ccc2c(Cn3cc(CSc4nc5ccccc5o4)nn3)cc(=O)oc2c1 . State its measured growth.
111

For C=C1C(=O)O[C@H]2[C@H]1CC/C(COC(=O)C(=O)c1cn(C)c3ccc(Cl)cc13)=C\CC[C@@]1(C)O[C@@H]21 , write its growth.
-96

Item Nc1ncnc2c1N=C(c1ccc(Br)cc1)CC(c1cccc(Nc3ccnc4cc(C(F)(F)F)ccc34)c1)N2 (stereo unspecified) : provide growth
85.6

Quote growth reported for CCOC(=O)c1cc2c(n1C)-c1nc(NC(C)=O)sc1CCC2 please.
94.3

Give reported growth value for Nc1ncc(-c2ccc3ncnc(Nc4cccc(Cl)c4)c3c2)cn1
28.9

# return recorded growth for entry O=C(c1ccncc1)N1N=C(c2ccc(Cl)cc2)C[C@H]1c1cn(-c2ccccc2)nc1-c1ccccc1
99.8

Tell me measured growth for CCNCCNc1cc(-c2ccc(C(F)(F)F)cc2)c(C#N)c2nc3ccccc3n12 please.
-95.1

Please report growth for the following compound: O=C(Cn1cc(CSc2nc3ccccc3o2)nn1)Nc1ccc(F)cc1F
124

Tell me measured growth for CC(=O)N1N=C(c2ccc(Nc3nc(Nc4ccccc4)nc(Nc4ccccc4)n3)cc2)CC1c1cccc([N+](=O)[O-])c1 (stereo unspecified) please.
102

Output measured growth for this item: Cc1ccc(Nc2cc(N)nc(N)n2)cc1Cl
94

Supply recorded growth for COc1ccc(-c2nc3cc(C(=O)NCc4ccccc4)ccc3n2C2CCCCC2)cc1 here.
82.8

Provide one value: measured growth of O=c1c2cccc3c(N4CCCC4)ccc(c32)c2nc3ccccc3n12
78.1

Identify growth associated with the compound CCOC(=O)C1=C(N)Oc2c(sc3c(F)cccc23)C1c1ccc(O)cc1 (stereo unspecified)
66.8
